Data origin: paper PMC7242751

Target: CA125 (native antigen) (human, UniProt Q8WXI7 1-14451)
Test: nitrocellulose membrane binding, elution and nanodrop quantification; CA125 20 U/mL immobilized; 1 mM Mg2+ in binding buffer; SELEX binding buffer 10 mM PBS, 1 mM MgCl2, 0.01% herring sperm DNA, 25 C; KD in binding buffer (composition not restated), 2 h at RT; pH not stated
Settings: protein: native
# Kd per record follows
Observation Type: Kd (nM)

binder="Apt 2.43 (ssDNA) DNA: TAGGGAAGAGAAGGACATATGATGATCAACAACACAAGGGGGGGGGTATCTAGTTGACTAGTACATGACCACTTGA" recorded_value=239
binder="Apt 2.26 (ssDNA) DNA: TAGGGAAGAGAAGGACATATGATTTTAGGGAAGAGAAGGACTTTTATGCCGCCTTGACTAGTACATGACCACTTGA" recorded_value=166
